Entries and their measured Kd follow.
# EXPERIMENTAL_SYSTEM: equine FcRn (large alpha subunit p51) / equine beta-2-microglobulin complex, biotinylated (equine) (UniProt P30441)
# PROCEDURE_TEXT: SPR (Biacore), pH 6
I only need the number, in nM, no unit after it.

Sample records with Kd:
[[record]]
binder = "equine IgG4 N434H (antibody, part only; not given: Variable domains, not shown: another chain or arm of the molecule) constant: ASTTAPKVFPLASHSAATSGSTVALGCLVSSYFPEPVTVSWNSGALTSGVHTFPSVLQSSGLYSLSSMVTVPASSLKSQTYICNVAHPASSTKVDKKIVIKECNGGCPAECLQVGPSVFIFPPKPKDVLMISRTPTVTCVVVDVGHDFPDVQFNWYVDGVETHTATTEPKQEQFNSTYRVVSVLPIQHKDWLSGKEFKCKVNNKALPAPVERTISKPTGQPREPQVYVLAPHRDELSKNKVSVTCLVKDFYPTDIDIEWKSNGQPEPETKYSTTPAQLDSDGSYFLYSKLTVETNRWQQGTTFTCAVMHEALHHHYTEKSVSKSPGK"
quantity = "Kd"
recorded_number = 5.2

[[record]]
binder = "equine IgG1 N434E (antibody, part only; not given: variable domains, not shown: another chain or arm of the molecule) constant: ASTTAPKVFALAPGCGTTSDSTVALGCLVSGYFPEPVKVSWNSGSLTSGVHTFPSVLQSSGFYSLSSMVTVPASTWTSETYICNVVHAASNFKVDKRIEPIPDNHQKVCDMSKCPKCPAPELLGGPSVFIFPPNPKDTLMITRTPEVTCVVVDVSQENPDVKFNWYMDGVEVRTATTRPKEEQFNSTYRVVSVLRIQHQDWLSGKEFKCKVNNQALPQPIERTITKTKGRSQEPQVYVLAPHPDELSKSKVSVTCLVKDFYPPEINIEWQSNGQPELETKYSTTQAQQDSDGSYFLYSKLSVDRNRWQQGTTFTCGVMHEALHEHYTQKNVSKNPGK"
quantity = "Kd"
recorded_number = 50.6

[[record]]
binder = "equine IgG4 K311S (antibody, part only; not given: variable domains, not shown: another chain or arm of the molecule) constant: ASTTAPKVFPLASHSAATSGSTVALGCLVSSYFPEPVTVSWNSGALTSGVHTFPSVLQSSGLYSLSSMVTVPASSLKSQTYICNVAHPASSTKVDKKIVIKECNGGCPAECLQVGPSVFIFPPKPKDVLMISRTPTVTCVVVDVGHDFPDVQFNWYVDGVETHTATTEPKQEQFNSTYRVVSVLPIQHSDWLSGKEFKCKVNNKALPAPVERTISKPTGQPREPQVYVLAPHRDELSKNKVSVTCLVKDFYPTDIDIEWKSNGQPEPETKYSTTPAQLDSDGSYFLYSKLTVETNRWQQGTTFTCAVMHEALHNHYTEKSVSKSPGK"
quantity = "Kd"
recorded_number = 12.4


Please examine the following record next.
Q: Determine from records and report Kd for equine IgG1 Q311W (antibody, part only; not given: variable domains, not shown: another chain or arm of the molecule) constant: ASTTAPKVFALAPGCGTTSDSTVALGCLVSGYFPEPVKVSWNSGSLTSGVHTFPSVLQSSGFYSLSSMVTVPASTWTSETYICNVVHAASNFKVDKRIEPIPDNHQKVCDMSKCPKCPAPELLGGPSVFIFPPNPKDTLMITRTPEVTCVVVDVSQENPDVKFNWYMDGVEVRTATTRPKEEQFNSTYRVVSVLRIQHWDWLSGKEFKCKVNNQALPQPIERTITKTKGRSQEPQVYVLAPHPDELSKSKVSVTCLVKDFYPPEINIEWQSNGQPELETKYSTTQAQQDSDGSYFLYSKLSVDRNRWQQGTTFTCGVMHEALHNHYTQKNVSKNPGK
Result: 21.2
